src = patent US9822106B2

- target.system: UniProt P09960
- method.description: peptidase (aminopeptidase) assay
- Assay type: biochemical
- test.conditions: at 1 uM
Hi there, I'd appreciate the recorded inhibition at 1 µM for every entry that follows.
Answers are plain numbers, in %.

Reference set (3 entries):
CCOC(=O)c1ccc(Oc2ncccc2CNCc2ccc(Oc3ccc(-c4ncco4)cc3)cc2)cc1 [Compound 9] :: 45
CCOC(=O)c1ccc(Oc2ncccc2CNCc2ccc(Oc3ccc(Cl)cc3)cc2)cc1 [Compound 6] :: 18
CCOC(=O)c1ccc(Oc2ncccc2CN(C)Cc2ccc(Oc3ccc(-c4ncco4)cc3)cc2)cc1 [Compound 11] :: 17

# next compound below
Form: compound = CCOC(=O)c1ccc(Oc2ncccc2CN(C)Cc2ccc(Oc3ccc(Cl)cc3)cc2)cc1 [Compound 7] ; inhibition at 1 µM = 11

---

Hi there, I'd appreciate the recorded pIC50 for every entry that follows.
- target.system: LTA4-h (Homo sapiens)
- method.description: peptidase (aminopeptidase) assay
- Type: biochemical
Answers are plain numbers, as −log10 of the molar value.

O=C(O)C1CCCN(c2ccc(CNCc3ccc(OC/C=C/c4ccccc4)cc3)cn2)C1 (stereo not drawn) [Compound 31] :: 7.38
Cc1c(C(=O)O)ncn1-c1ccc(CNCc2ccc(Oc3ccc(Cl)cc3)cc2)cn1 [Compound 16] :: 7.09
O=C(O)C1CCCN(c2ccc(CNCc3ccc(Oc4ccc5cc(Cl)ccc5n4)cc3)cn2)C1 (stereo not drawn) [Compound 39] :: 6.77
COc1cc(C(=O)O)ccc1Oc1ncccc1CNCc1ccc(Oc2ccc(-c3ncco3)cc2)cc1 [Compound 14] :: 7.21
O=C(O)c1ccc(Oc2ncccc2CNCc2ccc(Oc3ccc(-c4ncco4)cc3)cc2)cc1 [Compound 10] :: 7.41
COCCN(Cc1ccc(Oc2ccc(Cl)cc2)cc1)Cc1ccc(N2CCCC(C(=O)O)C2)nc1 (stereo not drawn) [Compound 23] :: 7.07

Please look at the items below and tell me pIC50 for each one, in order.
1. CN(CC(=O)O)c1ccc(CNCc2ccc(Oc3ccc(Cl)cc3)cc2)cn1 [Compound 20]
2. O=C(O)C1CCCN(c2ccc(CNCc3ccc(Oc4ccc(-c5ncco5)cc4)cc3)cn2)C1 (stereo not drawn) [Compound 25]
3. O=C(O)C1CCCN(c2ccc(CNCc3ccc(Oc4cnc5ccccc5n4)cc3)cn2)C1 (stereo not drawn) [Compound 36]
4. O=C(O)[C@@H]1CCCN(c2ccc(CNCc3ccc(Oc4cnc5ccccc5n4)cc3)cn2)C1 [Compound 38]
5. O=C(O)C1CCCN(c2ccc(CNCCc3ccc(Oc4nc5ccccc5s4)cc3)cc2)C1 (stereo not drawn) [Compound 17]

Out:
1. 8.00
2. 7.89
3. 8.15
4. 7.80
5. 7.27

Form: compound = CN(Cc1ccc(Oc2ccc(Cl)cc2)cc1)Cc1ccc(N2CCCC(C(=O)O)C2)nc1 (stereo not drawn) [Compound 24] ; pIC50 = 7.55

---

- target.system: LTA4-h hydrolase (Homo sapiens, UniProt P09960)
- Construct: from tissue; host or cells: whole blood
- Sequence (P09960 whole entry): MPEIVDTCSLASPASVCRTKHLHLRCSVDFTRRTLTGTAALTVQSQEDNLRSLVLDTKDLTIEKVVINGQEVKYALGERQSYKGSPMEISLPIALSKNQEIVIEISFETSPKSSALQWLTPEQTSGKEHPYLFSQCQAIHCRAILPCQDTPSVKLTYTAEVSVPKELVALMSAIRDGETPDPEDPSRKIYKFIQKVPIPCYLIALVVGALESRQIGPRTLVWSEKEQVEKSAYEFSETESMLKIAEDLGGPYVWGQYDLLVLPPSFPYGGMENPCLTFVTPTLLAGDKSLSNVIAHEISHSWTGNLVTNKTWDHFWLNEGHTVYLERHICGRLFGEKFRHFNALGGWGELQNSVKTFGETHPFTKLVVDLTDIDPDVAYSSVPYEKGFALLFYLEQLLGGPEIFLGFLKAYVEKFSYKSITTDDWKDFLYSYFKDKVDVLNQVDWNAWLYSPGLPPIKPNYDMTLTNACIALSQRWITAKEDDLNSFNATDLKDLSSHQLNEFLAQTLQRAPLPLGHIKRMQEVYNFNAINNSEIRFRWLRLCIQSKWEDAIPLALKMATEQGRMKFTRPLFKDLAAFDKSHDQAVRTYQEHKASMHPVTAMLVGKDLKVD
- method.description: whole blood assay (WBA)
- Format: cell-based
- test.conditions: read-out: IC50 WBA
readout: pIC50
One number for each entry, as −log10 of the molar value.

Reference set (5 entries):
O=C(O)c1cccc(Oc2ncccc2CNCc2ccc(Oc3ccc(-c4ncco4)cc3)cc2)c1 :: 5.64
CN(Cc1ccc(Oc2ccc(Cl)cc2)cc1)Cc1ccc(N2CCC(C(=O)O)CC2)nc1 :: 6.24
CN(Cc1ccc(Oc2ccc(-c3ncco3)cc2)cc1)Cc1cccnc1Oc1ccc(C(=O)O)cc1 :: 6.44
C=CCOc1ccc(CNCc2ccc(N3CCCC(C(=O)O)C3)nc2)cc1 (stereo not shown) :: 6.00
Cc1c(C(=O)O)ncn1-c1ccc(CNCc2ccc(Oc3ccc(Cl)cc3)cc2)cn1 :: 6.06

Please look at the items below and tell me pIC50 for each one, in order.
1. O=C(O)c1ccc(Oc2ncccc2CNCc2ccc(Oc3ccc(Cl)cc3)cc2)cc1
2. O=C(O)C1CCCN(c2ccc(CNCc3ccc(Oc4nc5ccccc5s4)cc3)cn2)C1 (stereo not shown) [Compound 29]
3. O=C(O)c1ccc(Oc2ncccc2CNCc2ccc(Oc3ccc(-c4ncco4)cc3)cc2)cc1
4. O=C(O)C1CCCN(c2ccc(CNCc3ccc(Oc4nc5ccccc5s4)cc3)cn2)C1 (stereo not shown) [Compound 30]
5. COCCN(Cc1ccc(Oc2ccc(Cl)cc2)cc1)Cc1ccc(N2CCCC(C(=O)O)C2)nc1 (stereo not shown)

Out:
1. 6.10
2. 6.80
3. 5.72
4. 6.92
5. 6.33

Please look at the items below and tell me pIC50 for each one, in order.
1. CN(Cc1ccc(Oc2ccc(Cl)cc2)cc1)Cc1ccc(Oc2ccc(C(=O)O)cc2)nc1
2. O=C(O)C1CCCN(c2ccc(CNCc3ccc(Oc4ccc(-c5ncco5)cc4)cc3)cn2)C1 (stereo not shown)
3. CN(Cc1ccc(C(=O)O)cc1)c1ccc(CNCc2ccc(Oc3ccc(Cl)cc3)cc2)cn1
4. CN(Cc1ccc(Oc2ccc(Cl)cc2)cc1)Cc1cccnc1Oc1ccc(C(=O)O)cc1

Out:
5.68
7.26
6.68
6.54

Please look at the items below and tell me pIC50 for each one, in order.
1. COCCN(Cc1ccc(Oc2ccc(Cl)cc2)cc1)Cc1ccccc1Oc1cccc(C(=O)O)c1
2. COc1cc(C(=O)O)ccc1Oc1ncccc1CNCc1ccc(Oc2ccc(-c3ncco3)cc2)cc1

Out:
[5.71, 5.82]
